Source: patent US20070066516A1

Listed molecules paired with reported IC50
system.under.test: SSTR5 (Homo sapiens)
protocol.description: Radioligand binding assay on membranes of CHO-K1 cells expressing SSTR5
recorded.conditions: membranes from CHO-K1 cells stably expressing cloned somatostatin receptor 5
Where a SMILES comes first, the peptide text is derived from it. [ ]: non-standard residue; d: D form. Dip = N[C@H](C(=O)O)C(c1ccccc1)c1ccccc1; 1Nal = N[C@@H](Cc1cccc2ccccc12)C(=O)O; NMeF = CN[C@@H](Cc1ccccc1)C(=O)O; 4Pal = N[C@@H](Cc1ccncc1)C(=O)O

molecule	IC50 (nM)
CSCC[C@@H]1NC(=O)[C@H](C(C)C)NC(=O)[C@H](CCCCN)NC(=O)[C@@H](Cc2c[nH]c3ccccc23)NC(=O)[C@H](Cc2ccc(O)cc2)NC(=O)[C@H](Cc2ccccc2)N(C)C1=O [P2266, cyclo[Tyr-DTrp-Lys-Val-Met-(NMe)Phe]] (cyclo(Y[dW]KVM[NMeF]))	8.12
CSCC[C@@H]1NC(=O)[C@H]([C@@H](C)O)NC(=O)[C@H](CCCCN)NC(=O)[C@@H](Cc2c[nH]c3ccccc23)NC(=O)[C@H](Cc2ccncc2)NC(=O)[C@H](Cc2ccccc2)N(C)C1=O [P2281, cyclo[(4)Pal-DTrp-Lys-Thr-Met-(NMe)Phe]] (cyclo([4Pal][dW]KTM[NMeF]))	43.3
C[C@@H](O)[C@@H]1NC(=O)[C@H](CCCCN)NC(=O)[C@@H](Cc2c[nH]c3ccccc23)NC(=O)[C@H](Cc2ccc(O)cc2)NC(=O)[C@H](CCS)N(C)C(=O)[C@H](Cc2ccccc2)NC1=O [P1839, cyclo[Tyr-DTrp-Lys-Thr-Phe-(NMe)hCys], reference compound]	22
CSCC[C@@H]1NC(=O)[C@H]([C@@H](C)O)NC(=O)[C@H](CCCCN)NC(=O)[C@@H](Cc2c[nH]c3ccccc23)NC(=O)[C@H](Cc2cccc3ccccc23)NC(=O)[C@H](Cc2ccccc2)N(C)C1=O [P2278, cyclo[(1)Nal-DTrp-Lys-Thr-Met-(NMe)Phe]] (cyclo([1Nal][dW]KTM[NMeF]))	1.59
CSCC[C@@H]1NC(=O)[C@H](C(C)C)NC(=O)[C@H](CCCCN)NC(=O)[C@@H](Cc2c[nH]c3ccccc23)NC(=O)[C@H](Cc2cccc3ccccc23)NC(=O)[C@H](Cc2ccccc2)N(C)C1=O [P2329, cyclo[1Nal-DTrp-Lys-Val-Met-(N-Me)Phe]] (cyclo([1Nal][dW]KVM[NMeF]))	4.17
CSCC[C@@H]1NC(=O)[C@H]([C@@H](C)O)NC(=O)[C@H](CCCCN)NC(=O)[C@@H](Cc2c[nH]c3ccccc23)NC(=O)[C@H](C(c2ccccc2)c2ccccc2)NC(=O)[C@H](Cc2ccccc2)N(C)C1=O [P2326] (cyclo([Dip][dW]KTM[NMeF]))	42.2

====

Listed compounds paired with reported Ratio 2/5 in %
system.under.test: SSTR5 (Homo sapiens, UniProt P35346)
Sequence (P35346 whole entry): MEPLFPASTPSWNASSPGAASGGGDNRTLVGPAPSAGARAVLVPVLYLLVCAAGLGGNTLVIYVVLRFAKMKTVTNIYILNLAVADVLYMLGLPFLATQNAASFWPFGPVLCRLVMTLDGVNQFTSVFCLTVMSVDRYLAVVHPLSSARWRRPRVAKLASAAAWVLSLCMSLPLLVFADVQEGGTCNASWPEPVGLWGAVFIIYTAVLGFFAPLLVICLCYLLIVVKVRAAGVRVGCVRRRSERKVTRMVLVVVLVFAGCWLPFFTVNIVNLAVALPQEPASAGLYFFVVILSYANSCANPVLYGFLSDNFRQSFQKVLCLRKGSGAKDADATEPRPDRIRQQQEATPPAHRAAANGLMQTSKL
protocol.description: Radioligand binding assay on membranes of CHO-K1 cells expressing SSTR5
recorded.conditions: ratio of IC50 SSTR2 / IC50 SSTR5 in %
Where a SMILES comes first, the peptide text is derived from it. [ ]: non-standard residue; d: D form. Dip = N[C@H](C(=O)O)C(c1ccccc1)c1ccccc1; NMeF = CN[C@@H](Cc1ccccc1)C(=O)O; Thz = O=C(O)[C@@H]1CSCN1

compound	Ratio 2/5 in % [%]
CSCC[C@@H]1NC(=O)[C@H]([C@@H](C)O)NC(=O)[C@H](CCCCN)NC(=O)[C@@H](Cc2c[nH]c3ccccc23)NC(=O)[C@@H]2CSCN2C(=O)[C@H](Cc2ccccc2)NC1=O [P2297, cyclo[ThioPro-DTrp-Lys-Thr-Met-Phe]] (cyclo([Thz][dW]KTMF))	37.1
CSCC[C@@H]1NC(=O)[C@H]([C@@H](C)O)NC(=O)[C@H](CCCCN)NC(=O)[C@@H](Cc2c[nH]c3ccccc23)NC(=O)[C@H](C(c2ccccc2)c2ccccc2)NC(=O)[C@H](Cc2ccccc2)N(C)C1=O [P2326] (cyclo([Dip][dW]KTM[NMeF]))	0.42
